Values from ChEMBL document CHEMBL1201862

- Tested on: SK-MEL-5
- protocol: NCI tumour cell line growth inhibition, 48 h
Activity calls are given as the source filed them. Cut-off read from the data, not from the text of the source: active = GI50 up to about 1.1 µM and inactive = higher.
Write down one outcome, taken from label 1 (active), label 0 (inactive)

Previously resolved entries follow.
* C=C1C[C@@H](O)[C@@H](Br)C(C)(C)[C@@]12C=CC(O)(CBr)CC2 (stereo partly drawn) | label 0
* CC(=C\c1ccccc1)/C=C(\C#N)C(N)=O | label 0
* Cc1cc(Oc2cnc(=O)[nH]c2)cs1 | label 0
* O=c1oc2ccccc2c(O)c1C1c2c(c3ccccc3oc2=O)Oc2c1c(=O)oc1ccccc21 | label 0
* Cc1cc(=O)n(-c2cc3cccccc-3n2)[nH]1 | label 0

Qu. Dear colleague, could you share the recorded outcome for `Cc1c2cnccc2c(C)c2c1c1ccccc1n2CCCCCCCl` when you have a moment?
Ans. label 0

Qu. Hello, I am checking results. What call was entered for CCCOC(=O)C1C2CCC(O2)C1C(=O)O (stereo not drawn) ?
Ans. label 0

Qu. Record request — test call for `CC[C@@H](C)[C@@H]1NC(=O)C(C(C)=O)=C1O`
Ans. label 0

Qu. I would be grateful if you could indicate the recorded call for `CCn1c(=O)c2nc(SC)sc2n(-c2ccccc2)c1=S` .
Ans. label 0

Qu. Give the logged outcome of this assay for the following compound: `OC(c1ccccc1)(c1ccccc1)c1ccccn1`
Ans. label 0

Qu. What classification did `COc1cc(/C=C/C(=O)c2sc(-n3nc(-c4ccccc4)cc3-c3ccccc3)nc2C)ccc1O` end up with in this test?
Ans. label 0

Qu. Test call, this compound: `O=c1c2ccccc2[se]n1-c1cccnc1`
Ans. label 0

Qu. For this compound, state the assay outcome: `COc1ccc2oc(=N)c(C(=O)Nc3cccc4ccccc34)cc2c1`
Ans. label 0

Qu. What is the recorded call for this compound in the test? CC(C)(C)OC(=O)NC(Cc1ccc(OCc2ccccc2)cn1)C(=O)N1CCSCC1 (stereo not drawn)
Ans. label 0

---

- Test system: NCI-H23
- protocol: NCI tumour cell line growth inhibition, 48 h
Active and inactive are the calls of the source. Rule as the data show it: active = GI50 up to about 1.1 µM and inactive = higher.
quantity: GI50

Examples with their reported GI50 follow.
• O=c1c2ccccc2[nH]c2c(O)ccc(O)c12 = 27.4 µM (inactive)
• OCc1cn(Cc2ccccc2)c2ccccc12 = 14.4 µM (inactive)
• CN1c2ccccc2NC(CC(=O)O)C2CC=CN21 (configuration not stated) = > 100 µM (inactive)

Qu. I am curious: what GI50 value has been reported for CCCC/C=C1\CCC(CN2CCCCC2)C1=O (configuration not stated) ?
Ans. 28.1 µM (inactive)

Qu. Which GI50 reading was recorded for the compound `CC(=O)Nc1ccc(/C=C/[N+](=O)[O-])cc1` ?
Ans. 3.09 µM (inactive)

Qu. For Nc1nc(Br)nc2ncn(C3CC(O)C(CO)O3)c12 (configuration not stated) , what is its reported GI50?
Ans. 3.76 µM (inactive)

Qu. Quick check: GI50 of `CN(C)C(=S)C(Cl)(c1ccccc1)c1ccccc1` ?
Ans. 53.3 µM (inactive)

Qu. Which GI50 reading was recorded for the compound CC12N=NNC1C(=O)NC2=O (configuration not stated) ?
Ans. > 100 µM (inactive)

Qu. Consider the compound NC1CCC[C@H]1O (some centres not stated) and give its measured GI50.
Ans. > 100 µM (inactive)

Qu. Which GI50 value belongs to `COc1ccc(C2=C(OC(C)=O)c3cccn3-c3ccc(Cl)cc3S2)cc1` ?
Ans. 4.52 µM (inactive)

Qu. Name the recorded GI50 for CC(C)(C)OC(=O)C#CC[C@H]1CCCC1/C=C/C(O)=C1/C(=O)NC(CCCNC(=O)OC(C)(C)C)C1=O (some centres not stated) .
Ans. 24.9 µM (inactive)

Qu. Which GI50 is listed for `Oc1cccc2ccc(Br)nc12` ?
Ans. > 100 µM (inactive)

---

Recorded GI50 values for a group of compounds are listed next.
- Test system: HCT-116
- protocol: NCI tumour cell line growth inhibition, 48 h
Activity calls are given as the source filed them. Rule as the data show it: active = GI50 up to about 1.1 µM and inactive = higher.

• CS(=O)(=O)c1nc(Cl)c(Cl)c(C#N)c1Cl = 2.25 µM (inactive)
• O=c1/c(=C/c2ccc(-c3ccc(Cl)cc3Cl)o2)sc2n1[C@@H](c1ccc(Cl)cc1)C=C(c1cc(F)c(Cl)cc1Cl)N=2 = 37.9 µM (inactive)
• C=C(CN(CC(=C)C(=O)c1ccccc1)C(C)(C)C)C(=O)c1ccccc1 = 13.8 µM (inactive)

Then this compound:
Qu. Could you share which GI50 value was measured for `Cc1cc(Cl)nc(Nc2nc3ccccc3[nH]2)n1` ?
Ans. > 100 µM (inactive)

---

- Tested on: KM12
- protocol: NCI tumour cell line growth inhibition, 48 h
Activity calls are given as the source filed them. Cut-off read from the data, not from the text of the source: active = GI50 up to about 1.1 µM and inactive = higher.
Please answer using one outcome listed in active, inactive

Example cases with answers are listed next.
• O=C(CCc1cc(-c2ccco2)n(-c2ccc([N+](=O)[O-])cc2[N+](=O)[O-])n1)Nc1ccccc1 = inactive
• O=C1C=CC(=O)[C@H]2C3C=CC(C4C3C3(Cl)C(Cl)=C(Cl)[C@]4(Cl)C3(Cl)Cl)[C@@H]12 (stereo partly drawn) = inactive
• CCOC(=O)N(CC)c1c(C(F)(F)F)cc(-c2ccccc2)[nH]c1=O = inactive
• CC/C(=C(\c1ccccc1)c1ccc(OCC[N+](C)(C)C)cc1)c1ccccc1 [TAMOXIFEN METHYL IODIDE] = inactive
• Cc1cccc(C(C)(C)C)c1NC(=O)CC1C(=O)Nc2ccccc2[S+]1[O-] (stereo not drawn) = inactive
• CCOC(=O)c1c(C)n(-c2ccc(C)cc2)c2c1cc(O)c1[nH]c3c(c12)CCCC3 = inactive

Qu. What classification did C=C1C(=O)OC2C[C@H](C)C3CC(=O)C(C)=C3CC12 (stereo partly drawn) end up with in this test?
Ans. inactive

Qu. Recorded test call requested for `Cc1cc(=O)cc2sc3c(C)cccc3nc1-2`
Ans. inactive

---

- System: MDA-N
- protocol: NCI tumour cell line growth inhibition, 48 h
Active and inactive are the calls of the source. Rule as the data show it: active = GI50 up to about 1.1 µM and inactive = higher. Positions of bridges follow the written chain, without caps; N, C: chain ends. Non-standard residues stand in square brackets, D forms with d. Residues, ends and D or L forms follow the SMILES beside them. *: point of attachment. PhAc = O=C(Cc1ccccc1)*
quantity: GI50

Example entries and their recorded answers appear below.
• CC(C)C1=C2CCC3(C)C(CCC4C5C6OCC5(CCC6(C)C)CCC43C)C2(C)CC1 (stereo not given) = 13.7 µM (inactive)
• O=c1oc2ccccc2c(O)c1C1c2c(c3ccccc3oc2=O)Oc2c1c(=O)oc1ccccc21 = 18.9 µM (inactive)

Qu. Requested read-out: GI50. Entry: O=c1[nH]c(N/N=C\C(=N/Nc2nc3ccccc3c(=O)[nH]2)C(O)C(O)C(O)CO)nc2ccccc12 (stereo not given)
Ans. > 100 µM (inactive)

Qu. GI50 lookup needed for O=C1CS(=O)(=O)C(c2cccc(Oc3ccccc3)c2)N1c1ccc(Cl)cc1 (stereo not given) , thanks.
Ans. 16.8 µM (inactive)

Qu. Query (compound): `CCCCCCCC(=O)NS(=O)(=O)c1ccccc1` ; field requested: GI50
Ans. > 100 µM (inactive)

Qu. What value of GI50 has been recorded for this entry: O=C(Cc1ccccc1)N[C@@H]1COC(=O)[C@@H]2CCCN2C(=O)[C@@H]2CCCN2C1=O (PhAc-[dS]-Pro-Pro; ester 1-C)
Ans. > 100 µM (inactive)

Qu. Give the measured GI50 of `O=C(COc1ccc(OCC(=O)N2C(=O)CC(=O)N(c3ccccc3)C2=S)cc1)N1C(=O)CC(=O)N(c2ccccc2)C1=S` .
Ans. 68.7 µM (inactive)

Qu. Give its GI50 value. Item: `N#Cc1ncc(C(Cl)Cl)nc1Cl`
Ans. 1.5 µM (inactive)

Qu. What value of GI50 has been recorded for this entry: `O=C(CNc1ccccn1)Nn1cnc2ccc(S(=O)(=O)Nc3ccccn3)cc2c1=O`
Ans. > 100 µM (inactive)

Qu. Form field: reported GI50 of `COc1ccc(-n2c(N)c(C#N)[nH]c2=O)cc1`
Ans. > 10 µM (inactive)

---

- Test system: CAKI-1
- protocol: NCI tumour cell line growth inhibition, 48 h
Active and inactive are the calls of the source. Cut-off read from the data, not from the text of the source: active = GI50 up to about 1.1 µM and inactive = higher.
quantity: GI50

Record excerpt, results attached:
• Cc1cc(=O)oc2c3c(ccc12)OC(c1ccc(Br)cc1)CC3=O (centres undefined) = 12.4 µM (inactive)
• COc1cc2c(cc1OC)-c1cc3ccccc3c(=O)n1CCC2 = 7.85 µM (inactive)
• CN(O)C(=S)c1ccccc1 = 4.25 µM (inactive)

Qu. // returns reported GI50 for input `CCOC(=O)Nc1nn(C)/c(=N/Cc2ccccc2)s1`
Ans. > 100 µM (inactive)

---

- Test system: UACC-62
- protocol: NCI tumour cell line growth inhibition, 48 h
Calls of active or inactive are those of the source. No stated cut-off is given here; in the data, active = GI50 up to about 1.1 µM and inactive = higher.
Respond using exactly one of the listed classes: true for active, false for inactive

Answered cases to consult:
* COc1cccc2c1C(=O)c1c(O)c3c(c(O)c1C2=O)C[C@@](O)(C(C)=O)C[C@@H]3OC1OC(C)C(O)C(N)C1Br (stereo partly drawn) | true
* CCOCCOC(=O)C1CCC(=O)N1CN(C(C)=O)c1cc(OC)ccc1OC (stereo not drawn) | false

Shifting focus to the compound that follows.
Qu. Could you check what this test reported for COc1cc(C(C)O)c[n+](Cc2ccccc2)c1 (stereo not drawn) ?
Ans. false
